# protocol: Orientative acute toxicity in po dosed ICEM:CET (SPF Caw) mouse administered via gavage measured for 60 mins after drug dosing by Irwin's test
# Assay type: organism-based
# test_context: ICEM:CET (SPF Caw), in vivo
parameter_measured: LD50 at 1 h (mg/kg)
The answer is to be given in mg/kg; state only the numeric part.

[[record]]
compound = "CN(C)C1CN(C2c3ccccc3COc3ccccc32)C1 (stereo unspecified)"
unit_abbrev = "mg/kg"
reading = 100

[[record]]
compound = "CNC1CN(C2c3ccccc3C=Cc3ccccc32)C1"
unit_abbrev = "mg/kg"
reading = 200

[[record]]
compound = "CN(C)C1CN(C2c3ccccc3CSc3ccccc32)C1 (stereo unspecified)"
unit_abbrev = "mg/kg"
reading = 400

[[record]]
compound = "CNC1CN(C(c2ccccc2)c2ccccc2)C1"
unit_abbrev = "mg/kg"
reading = 200

[[record]]
compound = "CNC1CN(C2c3ccccc3CCc3ccccc32)C1"
unit_abbrev = "mg/kg"
reading = 400


LD50 at 1 h recorded for this compound, CC(C)(C)NC1CN(C2c3ccccc3CCc3ccccc32)C1 , is 400

LD50 at 1 h recorded for this compound, CN(C)C1CN(C2c3ccccc3CSc3ccc(Cl)cc32)C1 (stereo unspecified) , is 400

LD50 at 1 h recorded for this compound, c1ccc2c(c1)CCc1ccccc1C2N1CC(NC2CCCCC2)C1 , is 400

LD50 at 1 h recorded for this compound, CNC1CN(C2c3ccccc3COc3ccccc32)C1.O=C(O)/C=C/C(=O)O (single isomer, unassigned; (+)) , is 200

LD50 at 1 h recorded for this compound, CNC1CN(C2c3ccccc3CSc3ccc(OC)cc32)C1 (stereo unspecified) , is 400

LD50 at 1 h recorded for this compound, CNC1CN(C2c3ccccc3C3(CC3)c3ccccc32)C1 , is 200

---

# System: Mus musculus
# protocol: Antidepressant activity in po dosed ICEM:CET (SPF Caw) mouse assessed as antagonism of reserpine-induced hypothermia administered via gavage 30 mins before reserpine challenge measured 4 hrs after reserpine treatment
# Assay type: functional
# test_context: Mus musculus, ICEM:CET(SPF Caw), po; read-out: ED50
In this section we review reported ED50 values for a set of molecules.
The answer is to be given in mg/kg; state only the numeric part.

[[record]]
molecule = "CN(C)C1CN(C2c3ccccc3CCc3ccccc32)C1"
unit_abbrev = "mg/kg"
reading = 12.5

[[record]]
molecule = "CCNC1CN(C2c3ccccc3COc3ccccc32)C1 (centres undefined)"
unit_abbrev = "mg/kg"
reading = 22.2

[[record]]
molecule = "CN(C(N)=O)C1CN(C2c3ccccc3CCc3ccccc32)C1"
unit_abbrev = "mg/kg"
reading = 12.5

[[record]]
molecule = "NC1CN(C2c3ccccc3CCc3ccccc32)C1"
unit_abbrev = "mg/kg"
reading = 12

[[record]]
molecule = "CNC1CN(C2c3ccccc3CCc3ccccc32)C1"
unit_abbrev = "mg/kg"
reading = 7.3


Tested on Mus musculus, the item CNC1CN(C2c3ccccc3C3(CC3)c3ccccc32)C1 showed ED50 equal to 11.4

Tested on Mus musculus, the item C#CCN(CC#C)C1CN(C2c3ccccc3CCc3ccccc32)C1 showed ED50 equal to 21

Tested on Mus musculus, the item CCNC1CN(C2c3ccccc3CCc3ccccc32)C1 showed ED50 equal to 12.5

Tested on Mus musculus, the item CN(C)CCC=C1c2ccccc2CCc2ccccc21.Cl [AMITRIPTYLINE HYDROCHLORIDE] showed ED50 equal to 6.6

Tested on Mus musculus, the item CN(C)CCCN1c2ccccc2CCc2ccccc21.Cl [IMIPRAMINE HYDROCHLORIDE] showed ED50 equal to 12.3
